EXPERIMENT_SUMMARY: Kinetic solubility of the compound in 1%DMSO/PBS measured after 5 mins
Type: physicochemical
RUN_CONDITIONS: read-out: Kinetic_solubility
QUANTITY_MEASURED: solubility kinetic at 5 min

Examples from the recorded data:
[
  {
    "SMILES": "CC(=O)c1ccccc1COc1ncnc2c(Cl)cc(Cl)cc12",
    "RESULT": "43 µM"
  },
  {
    "SMILES": "COc1ccc(C(C)=O)cc1COc1ncnc2cc(Cl)ccc12",
    "RESULT": "26 µM"
  },
  {
    "SMILES": "CC(=O)c1cccc(COc2ncnc3c(Cl)cc(Cl)cc23)c1",
    "RESULT": "46 µM"
  }
]

// "CCc1ccc(C(C)=O)cc1COc1ncnc2c(Cl)cc(Cl)cc12" : solubility kinetic at 5 min value = 21 µM

// "Cc1ccc(COc2ncnc3c(Cl)cc(Cl)cc23)cc1" : solubility kinetic at 5 min value = 12 µM

// "Clc1cc(Cl)c2ncnc(OCc3ccc(Br)cc3)c2c1" : solubility kinetic at 5 min value = 12 µM

====

Here the recorded solubility kinetic at 5 min is given for each entry.
EXPERIMENT_SUMMARY: Kinetic solubility of the compound in 1%DMSO/PBS measured after 5 mins
Assay type: physicochemical
RUN_CONDITIONS: read-out: Kinetic_solubility
Answer with a number only, understood to be in µM.

Examples from the recorded data:
[
  {
    "SMILES": "COc1ccc(C(C)=O)cc1COc1ncnc2c(Cl)ccc(Cl)c12",
    "QUANTITY_MEASURED": "solubility kinetic at 5 min",
    "UNIT_OF_MEASUREMENT": "µM",
    "NUMERIC_RESULT": 37
  },
  {
    "SMILES": "COC(=O)c1ccc(COc2ncnc3c(Cl)cc(Cl)cc23)cc1",
    "QUANTITY_MEASURED": "solubility kinetic at 5 min",
    "UNIT_OF_MEASUREMENT": "µM",
    "NUMERIC_RESULT": 25
  },
  {
    "SMILES": "Clc1ccc(COc2ncnc3c(Cl)cc(Cl)cc23)cc1",
    "QUANTITY_MEASURED": "solubility kinetic at 5 min",
    "UNIT_OF_MEASUREMENT": "µM",
    "NUMERIC_RESULT": 18
  }
]

Here is another compound to look at.
// "COc1ccc(C(C)=O)cc1COc1ncnc2c(O)cccc12" : solubility kinetic at 5 min value = 55

====

EXPERIMENT_SUMMARY: Kinetic solubility of the compound in 1%DMSO/PBS measured after 5 mins
Assay type: physicochemical
RUN_CONDITIONS: read-out: Kinetic_solubility
Label rule, in plain words: solubility kinetic at 5 min of 30 µM and up is label 1, under 30 µM is label 0.

[
  {
    "SMILES": "COc1ccc(C(C)=O)cc1COc1ncnc2c(C#N)cccc12",
    "ASSIGNED_CLASS": "label 1"
  }
]

Q. Quick check, solubility kinetic at 5 min >= 30 µM? "CCc1ccc(OC)c(COc2ncnc3c(Cl)cc(Cl)cc23)c1"
A. label 1

Q. Quick check, solubility kinetic at 5 min >= 30 µM? "COC(=O)c1ccccc1COc1ncnc2c(Cl)cc(Cl)cc12"
A. label 0

Q. Quick check, solubility kinetic at 5 min >= 30 µM? "COc1ccc(C(C)=O)cc1COc1ncnc2c(OCc3cc(C(C)=O)ccc3OC)cccc12"
A. label 1

Q. Quick check, solubility kinetic at 5 min >= 30 µM? "COc1cccc(OC)c1COc1ncnc2c(Cl)cc(Cl)cc12"
A. label 0

Q. Quick check, solubility kinetic at 5 min >= 30 µM? "O=C(O)c1cccc(COc2ncnc3c(Cl)cc(Cl)cc23)c1"
A. label 1

Q. Quick check, solubility kinetic at 5 min >= 30 µM? "COc1ccc(C(C)=O)cc1COc1ncnc2c(C3CC3)cccc12"
A. label 0
